Target: NDM-1 (Klebsiella pneumoniae)
Sequence (C7C422 whole entry, looked up, species assumed): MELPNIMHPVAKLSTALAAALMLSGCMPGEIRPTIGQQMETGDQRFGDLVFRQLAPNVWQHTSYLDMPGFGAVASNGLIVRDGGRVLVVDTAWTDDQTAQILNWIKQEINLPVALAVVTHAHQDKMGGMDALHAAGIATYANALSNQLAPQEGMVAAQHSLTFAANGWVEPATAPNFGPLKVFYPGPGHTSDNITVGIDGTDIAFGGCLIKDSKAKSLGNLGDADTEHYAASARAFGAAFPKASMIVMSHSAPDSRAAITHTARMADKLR
Property Label: IC50 (nM)
Expressed in nM, but write only the number.

1. NC(=O)C1CCN(c2ccc(S(=O)(=O)N[C@@H]3CCNC3)c(S(N)(=O)=O)c2-c2nnn[nH]2)CC1 [Example 94]; 0.18
2. N[C@@H]1CCN(c2ccc(S(=O)(=O)N[C@@H]3CCNC3)c(S(N)(=O)=O)c2-c2nn[nH]n2)C[C@@H]1F [Example 198]; 1.82
3. Cl.Cl.NCC1CCN(c2ccc(S(=O)(=O)N[C@@H]3CCNC3)c(S(N)(=O)=O)c2-c2nn[nH]n2)CC1 [Example 135, dihydrochloride]; 1.13

For the next question, use this compound.
Tell me the measured IC50 of C[C@H](CN)NS(=O)(=O)c1ccc(N2CCC(CCN)CC2)c(-c2nn[nH]n2)c1S(N)(=O)=O [Example 185] , please.
0.33

###

The following molecules are listed with their measured Efflux ratio values.
Test system: P. aeruginosa MB9798 (efflux+, IMP-1 plasmid)
Conditions: fold difference between efflux+ (MB9798) and efflux− (MB9799) strains
Lab note: jot the number down without any unit.

1. NCC1CCN(c2ccc(S(=O)(=O)NC[C@@H](O)CN)c(S(N)(=O)=O)c2-c2nnn[nH]2)CC1; 1.00
2. NC[C@@H](O)CNS(=O)(=O)c1ccc(N2CCC(CO)CC2)c(-c2nnn[nH]2)c1S(N)(=O)=O; 1.00
3. CS(=O)(=O)CCN1CCN(c2ccc(S(=O)(=O)NC[C@H](O)CN)c(S(N)(=O)=O)c2-c2nn[nH]n2)CC1; 4.00
4. NC[C@@H](O)CNS(=O)(=O)c1ccc(N2CCC[C@H](CN)C2)c(-c2nnn[nH]2)c1S(N)(=O)=O; 2.00
5. NS(=O)(=O)c1c(S(=O)(=O)N[C@@H]2CCNC2)ccc(N2CCCCC2=O)c1-c1nn[nH]n1; 2.00
6. NS(=O)(=O)c1c(S(=O)(=O)N[C@@H]2CCNC2)ccc(N2CCCNC2=O)c1-c1nn[nH]n1; 2.00
7. N[C@H]1CCN(c2ccc(S(=O)(=O)N[C@@H]3CCNC3)c(S(N)(=O)=O)c2-c2nn[nH]n2)C[C@H]1F; 1.00
8. NCCNS(=O)(=O)c1ccc(N2CCN(CCO)CC2)c(-c2nnn[nH]2)c1S(N)(=O)=O; 4.00
9. NC[C@@H](O)CNS(=O)(=O)c1ccc(N2CC[C@H](CN)[C@@H](O)C2)c(-c2nn[nH]n2)c1S(N)(=O)=O; 4.00
10. NC[C@@H](O)CNS(=O)(=O)c1ccc(N2CC[C@H](CN)[C@@H](F)C2)c(-c2nn[nH]n2)c1S(N)(=O)=O (stereo in doubt); 2.00

Param readout= Efflux ratio; system= P. aeruginosa MB9798 (efflux+, IMP-1 plasmid); entry= CC1CC(CN)CCN1c1ccc(S(=O)(=O)NC[C@H](O)CN)c(S(N)(=O)=O)c1-c1nn[nH]n1 (stereo partly shown) ; returns value.
2.00

Please provide the recorded Efflux ratio for `NS(=O)(=O)c1c(S(=O)(=O)N[C@@H]2CCNC2)ccc(N2CCNC2=S)c1-c1nn[nH]n1` , tested on P. aeruginosa MB9798 (efflux+, IMP-1 plasmid).
4.00

What measured Efflux ratio is associated with `NS(=O)(=O)c1c(S(=O)(=O)N[C@@H]2CCNC2)ccc(N2CC[C@@H](CO)C2)c1-c1nnn[nH]1` on P. aeruginosa MB9798 (efflux+, IMP-1 plasmid)?
1.20

Value wanted: Efflux ratio (P. aeruginosa MB9798 (efflux+, IMP-1 plasmid)) of entry `NC[C@@H](O)CNS(=O)(=O)c1ccc(N2CCC(CNCCO)CC2)c(-c2nn[nH]n2)c1S(N)(=O)=O`
2.00

// fetch P. aeruginosa MB9798 (efflux+, IMP-1 plasmid) Efflux ratio for NC[C@@H](O)CNS(=O)(=O)c1ccc(N2CCC3(CCNC3)C2)c(-c2nn[nH]n2)c1S(N)(=O)=O (stereo partly shown)
2.00

Query for P. aeruginosa MB9798 (efflux+, IMP-1 plasmid): what Efflux ratio does the record show for NC[C@@H](O)CNS(=O)(=O)c1ccc(N2CCOC(CO)C2)c(-c2nn[nH]n2)c1S(N)(=O)=O (stereo partly shown) ?
4.00
